Provenance of the data: PubChem BioAssay AID256

- Test system: CD2F1 mice, L1210 leukemia ip, survival T/C
- Assay: NCI In Vivo Anticancer Drug Screen. Data for tumor model L1210 Leukemia (intraperitoneal) in CD2F1 (CDF1) mice
- Condition Description: endpoint: median survival time; dose: 12.5 mg/kg/injection; schedule: Q01DX009 (ip); vehicle: saline; higher = longer survival
Toxic doses and inconclusive results are not listed.
T/C values, listed per item
Measurement Name: T/C

> print(dat)
                                   molecule                          target.or.system  measurement.name               val
1     CCC1OC(OC)C=CC1=O (centres undefined)  CD2F1 mice, L1210 leukemia ip, survival T/C               T/C  100 % of control
2  COc1nc(=O)n(C2C=CC(=O)O2)cc1F (centres undefined)  CD2F1 mice, L1210 leukemia ip, survival T/C               T/C  100 % of control
3  O=CC(O)C(O)C(O)C(O)C(=O)O.[NH-]C1CCCCC1[NH-].[Pt+2] (centres undefined)  CD2F1 mice, L1210 leukemia ip, survival T/C               T/C   90 % of control
4         c1csc(C[N+]23CN4CN(CN(C4)C2)C3)c1  CD2F1 mice, L1210 leukemia ip, survival T/C               T/C  103 % of control

* * *

- Tested on: CD2F1 mice, L1210 leukemia ip, survival T/C
- Assay: NCI In Vivo Anticancer Drug Screen. Data for tumor model L1210 Leukemia (intraperitoneal) in CD2F1 (CDF1) mice
- Condition Description: endpoint: mean survival time; dose: 200.0 mg/kg/injection; schedule: Q01DX009 (ip); vehicle: saline sonified; higher = longer survival
Toxic doses and inconclusive results are not listed.
Measurement Name: T/C

> print(dat)
                                   compound                          target.or.system               val
1  C/C(=N\O)C1(C)CC=CCC1CO (centres undefined)  CD2F1 mice, L1210 leukemia ip, survival T/C   96 % of control
2  COc1cc2c(cc1C(C)C)CCC1C(C)(C(=O)O)CCCC21C (centres undefined)  CD2F1 mice, L1210 leukemia ip, survival T/C   97 % of control
3  COc1ccc(C(O)c2ccccc2S(=O)(=O)N(C)C)cc1 (centres undefined)  CD2F1 mice, L1210 leukemia ip, survival T/C   96 % of control
4                         CCOC(=O)C(C)(C)Br  CD2F1 mice, L1210 leukemia ip, survival T/C  100 % of control

* * *

- System: CD2F1 mice, L1210 leukemia ip, survival T/C
- Assay: NCI In Vivo Anticancer Drug Screen. Data for tumor model L1210 Leukemia (intraperitoneal) in CD2F1 (CDF1) mice
- Condition Description: endpoint: mean survival time; dose: 100.0 mg/kg/injection; schedule: Q01DX009 (ip); vehicle: saline; higher = longer survival
Toxic doses and inconclusive results are not listed.
Listed molecules paired with reported T/C
Measurement Name: T/C

> print(dat)
                                    molecule               val
 1  CCOC(=O)C(C(=O)OCC)C(C[N+](=O)[O-])c1ccccc1 (centres undefined)  116 % of control
 2                       COC(=O)c1csc(CCN)n1  102 % of control
 3  O=C(OC(c1ccccc1)c1ccccc1)C(CSC(c1ccccc1)(c1ccccc1)c1ccccc1)NC(c1ccccc1)(c1ccccc1)c1ccccc1 (centres undefined)  101 % of control
 4             CC(C)C(=O)C(C)(C)C(=O)N1CCCC1   92 % of control
 5                          CCCCCCCCNC(=O)CC   94 % of control
 6          COC(=O)c1ccccc1NC(=O)/C=C/C(=O)O   88 % of control
 7            Cc1cc2c(cc1C)C(=O)c1ccccc1C2=O   93 % of control
 8   CS(C)(=O)=C/C(=C\C(=O)c1ccccc1)c1ccccc1   94 % of control
 9     NC(=O)CC(N)C(=O)O (centres undefined)  101 % of control
10  COc1ccc(NC(=O)c2ccc(C(=O)Nc3ccc(OC)cc3)cc2)cc1   96 % of control
11  NC(CSC(c1ccccc1)(c1ccccc1)c1cccs1)C(=O)O (centres undefined)   86 % of control
12                                CC(C)(N)CO  100 % of control
13                            CC(=O)N1CCCCC1  102 % of control
14                     Cc1cccc(=N)n1CCC(=O)O   95 % of control
